AC50 reference
Target: 5-hydroxytryptamine receptor 1A (Homo sapiens, UniProt P08908); also: assay procedure not described here
Sequence (P08908 whole entry): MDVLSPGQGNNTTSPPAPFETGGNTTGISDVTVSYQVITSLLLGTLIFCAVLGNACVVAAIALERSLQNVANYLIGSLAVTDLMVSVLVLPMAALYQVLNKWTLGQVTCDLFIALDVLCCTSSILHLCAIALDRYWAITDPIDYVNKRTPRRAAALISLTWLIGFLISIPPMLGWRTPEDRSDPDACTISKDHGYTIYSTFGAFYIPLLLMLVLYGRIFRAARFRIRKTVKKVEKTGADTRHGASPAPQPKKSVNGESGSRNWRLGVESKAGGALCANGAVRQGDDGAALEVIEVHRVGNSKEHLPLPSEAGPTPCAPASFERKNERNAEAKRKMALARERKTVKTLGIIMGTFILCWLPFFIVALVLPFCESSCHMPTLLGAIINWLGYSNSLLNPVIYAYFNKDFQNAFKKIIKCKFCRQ
Assay type: functional, cell-based

molecule | AC50
COc1ccc(CCN(C)CCCC(C#N)(c2cc(OC)c(OC)c(OC)c2)C(C)C)cc1OC (centres undefined) [GALLOPAMIL] | 11 µM
C#C[C@]1(O)CC[C@H]2[C@@H]3[C@H](C)CC4=C(CCC(=O)C4)[C@H]3CC[C@@]21C [TIBOLONE] | > 30 µM
NCC(CC(=O)O)c1ccc(Cl)cc1 (centres undefined) [BACLOFEN] | > 30 µM
Nc1nc(/C(=C/CC(=O)O)C(=O)N[C@@H]2C(=O)N3C(C(=O)O)=CCS[C@H]23)cs1 [CEFTIBUTEN] | > 30 µM

Reference source for all entries: ChEMBL document CHEMBL5291721
